These data points were gathered from paper PMC12136788.

Measurement Target: T1, UNK ZnF1-6 (called full-length) (human, UniProt Q9C0B0 30-357)
T1 sequence: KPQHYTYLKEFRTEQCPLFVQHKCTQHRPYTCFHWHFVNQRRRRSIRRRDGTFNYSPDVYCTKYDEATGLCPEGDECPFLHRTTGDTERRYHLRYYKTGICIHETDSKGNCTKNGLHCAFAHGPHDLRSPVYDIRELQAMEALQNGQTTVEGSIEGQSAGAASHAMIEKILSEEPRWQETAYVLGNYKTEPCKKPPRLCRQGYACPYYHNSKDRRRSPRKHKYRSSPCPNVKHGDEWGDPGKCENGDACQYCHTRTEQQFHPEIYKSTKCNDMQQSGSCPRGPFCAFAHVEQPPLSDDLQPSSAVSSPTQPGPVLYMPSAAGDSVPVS
Experiment Notes: nsRBNS (natural sequence RNA bind-n-seq); RBNS binding buffer (assumed for nsRBNS): 25 mM Tris pH 7.5, 150 mM KCl, 3 mM MgCl2, 0.01% Triton X-100, 500 ug/ml BSA, 20 U/ml SUPERase-In, 4 C; UNK is unkempt and MSI1 is Musashi-1; names of the RNAs are library labels; protein concentration not given here; high values mean tight binding
In all, about 5,800 sequences were measured (“enrichment r”: median about 0.68, highest 2% from about 11 on). For the sample, the highest values were picked, then their nearest neighbours and some sequences at random.
// binding signal lookup, one value per entry

- Binder: "chr3:125228010:125228111:-|3pUTR|ENSG00000163848|msi1|total|mutant (ssRNA) RNA: GGGAGUUCUACAGUCCGACGAUCAGUUCUCUUCAUAUUUCAUAACUACAUUUCAAUAAUUCUAAACUUUCUACAUUGAUUUUCCGAUACUUAUUUUUCAAGCUUGGUUUCUCAGCUGAUCAGAUGAAUUUAUUCAACUUCAAUCAACAGAGGAUUGAGCAUCA"
  binding signal: "15.6 enrichment R"
- Binder: "chr5:16663783:16663884:-|3pUTR|ENSG00000145555|msi1|FALSE|bound_elsewhere (ssRNA) RNA: GGGAGUUCUACAGUCCGACGAUCUGAGGAUACAAAAUUCACAGAUGCUCAAGUCCCUGCUAUACAGUGGUAUAAUAUUUGCAUAGAACCUGCACACAUCUUUCCUUACCCUUUAAAUCAUCUCCAGGUUACAGAUACCUAGCACAACAGAGGAUUGAGCAUCA"
  binding signal: "0.456 enrichment R"
